System: P12-Ichikawa
method-notes: cell viability relative to DMSO control; higher = less cytotoxic
test-context: RPMI 5 mM glucose + 10% FBS; 48 h; 5.12 µM
observable: cell viability (%)
Lab book: enter the figure in %, no units written.

Use the examples below as a reference point.
- molecule: "CCOc1cc2ncc(C#N)c(Nc3ccc(F)c(Cl)c3)c2cc1NC(=O)/C=C/CN(C)C"
  unit-abbrev: "%"
  cell viability: 57.6
- molecule: "CC(C)=CCC/C(C)=C/CC/C(C)=C/CC/C(C)=C/CC/C(C)=C/CC/C(C)=C/CC/C(C)=C/CC/C(C)=C/CC/C(C)=C/CO"
  unit-abbrev: "%"
  cell viability: 91.3
- molecule: "C[N]1C=C(C2=CC=CC=C12)\\C3=C(\\C(=O)NC3=O)C4=C[N](C5CCN(CC5)CC6=NC=CC=C6)C7=C4C=CC=C7"
  unit-abbrev: "%"
  cell viability: 116
- molecule: "OC1=CC2=C(C=C1)C(=O)\\C(=C(O2)\\C3=CC(=C(O)C=C3)O)O"
  unit-abbrev: "%"
  cell viability: 86
- molecule: "CC(C)(S)[C@@H](N)C(=O)O"
  unit-abbrev: "%"
  cell viability: 115
- molecule: "OC[C@H]1O[C@H](C[C@@H]1O)N2\\C=C(F)/C(=O)NC2=O"
  unit-abbrev: "%"
  cell viability: 25.6
- molecule: "NC[C@@H]1O[C@H](O[C@H]2[C@@H](O)[C@H](O[C@@H]3[C@@H](O)[C@H](N)C[C@H](N)[C@H]3O[C@H]3O[C@H](CN)[C@@H](O)[C@H](O)[C@H]3N)O[C@@H]2CO)[C@H](N)[C@@H](O)[C@@H]1O.O=S(=O)(O)O.O=S(=O)(O)O.O=S(=O)(O)O"
  unit-abbrev: "%"
  cell viability: 100
- molecule: "CCOC(=O)C(C#N)C\\1C2=CC(=CC=C2O\\C(=C1C(=O)OCC)N)Br (configuration not stated)"
  unit-abbrev: "%"
  cell viability: 97.9

Field request: cell viability | item: CC[S+](=O)([O-])Nc1ccc2c(c1)/C(=C(/Nc1ccc(CN3CCCCC3)cc1)c1ccccc1)C(=O)N2
35.3

Field request: cell viability | item: CN1CCN(c2c(F)cc3c(=O)c(C(=O)O)cn(CCF)c3c2F)CC1
103

Field request: cell viability | item: N\C1=N\C2=C(N=C[N]2COCCO)C(=O)N1
106

Field request: cell viability | item: C[C@H](CCC(=O)O)[C@H]1CCC2C3C[C@H](O)[C@@H]4C[C@H](O)CC[C@]4(C)C3CC[C@@]21C (some centres not stated)
102

Field request: cell viability | item: CN(C)c1ccc2nc3ccc(N(C)C)cc3[s+]c2c1
60.3

Field request: cell viability | item: O=C(NCCCCN1CCOCC1)c1cc2ccccc2o1
101

Field request: cell viability | item: COc1ccc(C(=O)c2c(C)n(CCN3CCOCC3)c3ccccc23)cc1
84.4

Field request: cell viability | item: N[C@H]2CN(CC12CC1)c3c(F)cc4c(c3Cl)[N@@](C=C(C4=O)C(=O)O)C5C[C@H]5F (some centres not stated)
95

Field request: cell viability | item: O=[N+]([O-])c1ncc[nH]1
81
